system: MAST1; conditions: concentration: 1 μM, replicates: in singlicate; n = 1;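 note: KINOMEscan kinase panel screen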
measure: %Inh (%)

INSERT INTO results (compound, measure, quantitative_readout) VALUES
  ('Cc1cccc(-c2nc(Nc3cccc(C(N)=O)c3)c3ccccc3n2)n1 [GW876019]', '%Inh', 11),
  ('O=C(Nc1ccccc1)Nc1cccc(Oc2ccc3nccn3n2)c1', '%Inh', 0),
  ('CS(=O)(=O)c1ccc(-c2nc3n(c2-c2ccncc2)CCC3)cc1 [SKF-105942]', '%Inh', 0),
  ('CSc1nn2c(=O)cc(N3CCOCC3)nc2n1Cc1cccc(C(F)(F)F)c1C [GSK2363608]', '%Inh', 0);

====

test system: CSNK1A1L; details: concentration: 1 μM, replicates: in singlicate; n = 1
Decision: %Inh >= 7% yields yes (1), all other cases yield no (0).

INSERT INTO measurements (molecule, experimental_system, category) VALUES
  ('COc1cc2ncn(-c3cc(OCC4CCCO4)c(C(N)=O)s3)c2cc1OC (stereo not drawn)', 'CSNK1A1L', 'no (0)'),
  ('Cn1ccc2ncnc(Oc3cccc(C(=O)Nc4ccccc4)c3)c21', 'CSNK1A1L', 'no (0)'),
  ('O=C(Nc1ccccc1)Nc1cccc(Oc2ccc3nccn3n2)c1', 'CSNK1A1L', 'yes (1)'),
  ('C[C@@H]1CCCCN1c1cc(-c2ccc3c(N)n[nH]c3c2)nc(N)n1', 'CSNK1A1L', 'no (0)'),
  ('Nc1nc(-c2nccs2)c(-c2ccnc3ccccc23)s1', 'CSNK1A1L', 'yes (1)'),
  ('Cl.O=C(Nc1cccc(-c2nn3ncccc3c2-c2ccnc(Nc3cccnc3)n2)c1)c1c(F)cccc1F', 'CSNK1A1L', 'no (0)'),
  ('COc1ccc(C2=C(Nc3cccc(C(=O)O)c3)C(=O)NC2=O)cc1', 'CSNK1A1L', 'yes (1)'),
  ('Cc1cccc(-c2cc(Nc3ccncc3)c3ccccc3n2)n1', 'CSNK1A1L', 'no (0)');

====

tested on: ACVR1; settings: concentration: 1 μM, replicates: in singlicate; n = 1
measure: %Inh (%)

INSERT INTO assay_data (molecule, measure, quantitative_readout) VALUES
  ('COc1cc(Nc2nccc(N3CCC(NC(=O)Nc4cc(C)ccc4C)C3)n2)cc(OC)c1OC (stereo not drawn) [GSK1379762]', '%Inh', 12),
  ('Cn1ccc2ncnc(Oc3ccc(NC(=O)Nc4ccccc4)cc3)c21', '%Inh', 0),
  ('CS(=O)(=O)c1ccc(-c2nc3n(c2-c2ccncc2)CCC3)cc1 [SKF-105942]', '%Inh', 10),
  ('Cc1cc(-c2ccc3c(c2)CC[C@@H](N[C@@H](C)c2ccccc2)C3)cnc1N.Cl [GW412617]', '%Inh', 34),
  ('Cc1nnc(-c2ccc3occ(-c4ccc(S(C)=O)cc4)c3c2)[nH]1 (stereo not drawn)', '%Inh', 0),
  ('O=c1cc(N2CCOCC2)nc2n(Cc3cccc(Cl)c3Cl)ccn12 [GSK2286295]', '%Inh', 0),
  ('O=S(=O)(c1ccc(-c2ccnc3[nH]ccc23)cc1)N1CCCC1 [GSK846226]', '%Inh', 24),
  ('Cn1ccc2ncnc(Oc3ccc(Nc4nc5ccccc5[nH]4)cc3)c21', '%Inh', 0),
  ('CS(=O)(=O)c1ccc(-c2c(-c3ncn[nH]3)sc(N3CCOCC3)c2C#N)cc1', '%Inh', 0);
